- Test system: MS2 coat protein
- Test description: apparent Kd, MS2 coat protein; higher = weaker binding; RNA-MaP array; FMN 200 µM where present
- Experimental conditions: ligand present: flavin mononucleotide; designed as: OFF switch for flavin mononucleotide
Binary call on apparent Kd: MET from 60 nM upward, NOT MET beneath that.

// known answers, use as guide
{"Seq text": "GACGUGUGAGGAUAUGCCGUGCCGGUCCGGAAGGUUCGGGUGCAGAAGGCACAUGAGGAUCACCCAUGUGUAAG", "Target desc": "MS2 coat protein", "Answer label": "NOT MET"}
{"Seq text": "GUGCGGUCAGGAUAUGCAUGGCGGGACUUGCGUCGUGGCGUGGAGAAGGGACAUGAGGAUCACCCAUGUGGAGU", "Target desc": "MS2 coat protein", "Answer label": "NOT MET"}
{"Seq text": "UAUUAUUUAUGAUAUUAUGACAGUAGAAGGCUAUACAUGUUGAUACAUGAGGAUCACCCAUGUAUAGAGGAUAUAUACAUAAAU", "Target desc": "MS2 coat protein", "Answer label": "MET"}
{"Seq text": "UAGGGCGAGUUAUGUACAAGAUACAUGAGGAUCACCCAUGUGUAGGAUAUGACCCUCAUCGCUGGUCAGAAGGGCACGAGAAUC", "Target desc": "MS2 coat protein", "Answer label": "MET"}

Q: State whether the measured apparent Kd reaches 60 nM, counting equality as reaching it, for "CAACGUGGAGGAUAUUAGCGAGACAACAUGAGGAUCACCCAUGUGGUACUCAUCUCCUCCUGAGAAGGCUACGCCC"
A: NOT MET

Q: State whether the measured apparent Kd reaches 60 nM, counting equality as reaching it, for "UCCUAACAUGAGGAUCACCCAUGUCAGGAUAUGAUACUAUGUACUUCGGUACAUAGUAUCAGAAGGGACAUCCU"
A: NOT MET

Q: State whether the measured apparent Kd reaches 60 nM, counting equality as reaching it, for "UUCUUACAUGAGGAUCACCCAUGUCAGGAUAUCUCCGCACUGCGCUUGCGCAGUGCAUAGAGAAGGGACAGGCU"
A: NOT MET

###

Measured apparent Kd, listed per entry.
- System: MS2 coat protein
- Test description: apparent Kd, MS2 coat protein; higher = weaker binding; RNA-MaP array
- Experimental conditions: designed as: ON switch for flavin mononucleotide; no ligand
Kindly answer with a numeric value in nM, unit omitted.

{"Seq text": "AUGAGUGGCCUGACAUGAGGAUCACCCAUGUCAAAUAAUGCAAGAAGGGACCUUUAUUCAAGGUGUCAGGAUAUUGAUUAAACC", "Unit abbreviation": "nM", "Result": 15.8}
{"Seq text": "AACUAACAUAGUUAACAACAUGAGGAUCACCCAUGUCGCAUGUAGGAUAUGGUAGAGGACACAACCCAGAAGGACAUAACAUAA", "Unit abbreviation": "nM", "Result": 41.9}
{"Seq text": "GCAUACAGCAAGAAGGUGGCAUCGACUAUGGCCCAAGGAUAUUGCGGUACUACAUGAGGAUCACCCAUGUGUUCAUGAUUAUAG", "Unit abbreviation": "nM", "Result": 35.5}
{"Seq text": "CAUUAAACAGCAGGAUAUACUAGUGUGAUACUGGUAGAAGGGCUCCUCACCCACAUGAGGAUCACCCAUGUGACAUCUACCUUA", "Unit abbreviation": "nM", "Result": 314}
{"Seq text": "AAACCAUCAAACACAUGAGGAUCACCCAUGUCUAAAGAAAUGUAGGAUAUGUAAUACCUAGUCAAACAGAAGGACAUUCAAGAU", "Unit abbreviation": "nM", "Result": 9.39}
{"Seq text": "ACAAGGCUUACAGGAUAUGUGCGUCAUACAAAACAUGAGGAUCACCCAUGUGCCCCAGCGUCUUCACAGAAGGGUACAAGCGUU", "Unit abbreviation": "nM", "Result": 26.6}
{"Seq text": "CACAACGGUAGUUAGGAUAUCCAUAUGCGUACAUGAGGAUCACCCAUGUAAUUACAGAAAUGAUAGGAGAAGGAACGCAUCCGAAA", "Unit abbreviation": "nM", "Result": 33.3}
{"Seq text": "GUGCUGAAUACGUAGGAUAUAGUGUGUGCGACAUGAGGAUCACCCAUGUAAAUUGCCCAUCAGAGCUAGAAGGACGAAUCUUCGUG", "Unit abbreviation": "nM", "Result": 15.5}
{"Seq text": "AACAUGGAUCAAGGAUAUGCAAAGCGCUCGAUAAACAUGAGGAUCACCCAUGUGGCAGUCACAACGCAGAAGGUGACUAUAAUA", "Unit abbreviation": "nM", "Result": 29.9}
{"Seq text": "AUUCAUCUCUAGAAGGGACUGCACAAAACACAGAAUUCUUACAUGAGGAUCACCCAUGUUGUGGGUCAGGAUAUAGGCAGGCCA", "Unit abbreviation": "nM", "Result": 25.3}

Q: Give the measured apparent Kd of "AAACACUCAUAAGGAUAUGCAGCGCUUAGACAUGAGGAUCACCCAUGUGAUGCAGGGAAGUCCCGGCAGAAGGUAAGUAAGUAC" .
A: 14.4

Q: Give the measured apparent Kd of "CGACUGAAUAGGCAGUACACAUGAGGAUCACCCAUGUUAGCAAGAAGGCAAGAGCCAGCGGAGCUUGAGGAUAUUGAAGAUCUC" .
A: 27.2

Q: Give the measured apparent Kd of "AAAUAAAUAGCAGGAUAUGGGAAACAUGAGGAUCACCCAUGUCAUAAAUAGCGAAAAUAACACAUCCAGAAGGGCAAGAAUCAA" .
A: 412

Q: Give the measured apparent Kd of "UGAACGUCAAGGCAGGAUAUUCUCAAGACAACAUGAGGAUCACCCAUGUUACAACGAUAAAUGAUGAAGAAGGGCCAGGGAUCAUA" .
A: 11.8
